B1: CPEB3 Ribozyme (parent)
chain: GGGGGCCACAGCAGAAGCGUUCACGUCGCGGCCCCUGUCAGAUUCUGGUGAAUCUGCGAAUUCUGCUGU

# Variants of: B1
# Measurement Description: self-cleavage, relative activity (ratio to wild type); higher = more cleavage; co-transcriptional
Classification field: true (1) = self-cleavage at or over 0.9; false (0) = self-cleavage under 0.9.

Example cases with answers are listed next.
[
  {
    "Mut": "C39U U53A",
    "Label Value": "false (0)"
  },
  {
    "Mut": "U46G G50C",
    "Label Value": "true (1)"
  },
  {
    "Mut": "A60C U69A",
    "Label Value": "false (0)"
  },
  {
    "Mut": "C32G G41U",
    "Label Value": "false (0)"
  },
  {
    "Mut": "G3A U69C",
    "Label Value": "true (1)"
  },
  {
    "Mut": "U44C G68U",
    "Label Value": "true (1)"
  },
  {
    "Mut": "C7A A15U",
    "Label Value": "false (0)"
  },
  {
    "Mut": "A16C C39G",
    "Label Value": "false (0)"
  },
  {
    "Mut": "C27G C33A",
    "Label Value": "false (0)"
  },
  {
    "Mut": "G11U U55C",
    "Label Value": "false (0)"
  }
]

I'd appreciate it if you could say whether A23G A42U has self-cleavage at least equal to 0.9.
false (0)

I'd appreciate it if you could say whether A15G U43A has self-cleavage at least equal to 0.9.
false (0)

I'd appreciate it if you could say whether G3A C7G has self-cleavage at least equal to 0.9.
false (0)

I'd appreciate it if you could say whether A16C G31U has self-cleavage at least equal to 0.9.
false (0)

I'd appreciate it if you could say whether A10C C54U has self-cleavage at least equal to 0.9.
true (1)

I'd appreciate it if you could say whether G3U C63A has self-cleavage at least equal to 0.9.
false (0)
